Sourced from patent US9513294B2

# procedure_text: Absorbance and fluorescence emission spectra (SpectraMax M2)
# Type: physicochemical
# conditions: MKAC compound library; absorbance maximum
# Protocol: BDC-8 (Blue): absorbance λmax=473 nm, emission λmax=585 nm; MK101-8 (Green): absorbance λmax=474 nm, emission λmax=563 nm; MKHA374-48 (Yellow): absorbance λmax=468 nm, λem=557 nm. The corresponding spectra of a reported BODIPY (BD-27; Red) are also included for comparison: absorbance λmax=551 nm, emission λmax=568 nm. […] ^1H-NMR, ^19F-NMR and ^13C-NMR spectra were recorded on Bruker ACF300 (300 MHz), DPX300 (300 MHz) and AMX500 (500 MHz) spectrometers. […]
recorded_endpoint: λmax Abs. (nm)

[[record]]
compound = "CCCc1cn(-c2ccc3n2[B-](F)(F)[N+]2=C(NCc4ccccc4C)C=CC2=C3c2ccc(NC(C)=O)cc2)nn1"
measurement_units = "nm"
experimental_result = 465

[[record]]
compound = "CC(=O)Nc1ccc(C2=C3C=CC(N4CCCC4)=[N+]3[B-](F)(F)n3c2ccc3-n2cc(CN(C)Cc3ccccc3)nn2)cc1"
measurement_units = "nm"
experimental_result = 461

[[record]]
compound = "CC(=O)Nc1ccc(C2=C3C=CC(N4CCc5ccccc5C4)=[N+]3[B-](F)(F)n3c2ccc3-n2cc(CN(C)Cc3ccccc3)nn2)cc1"
measurement_units = "nm"
experimental_result = 468

[[record]]
compound = "CCCC(C)c1cn(-c2ccc3n2[B-](F)(F)[N+]2=C(N4CC(C)OC(C)C4)C=CC2=C3c2ccc(NC(C)=O)cc2)nn1 (stereo not shown)"
measurement_units = "nm"
experimental_result = 466

[[record]]
compound = "COc1ccc(OC)c(CNC2=[N+]3C(=C(c4ccc(NC(C)=O)cc4)c4ccc(-n5cc(CN(C)Cc6ccccc6)nn5)n4[B-]3(F)F)C=C2)c1"
measurement_units = "nm"
experimental_result = 464

[[record]]
compound = "CCOc1ccccc1CNC1=[N+]2C(=C(c3ccc(NC(C)=O)cc3)c3ccc(-n4cc(CC(C)C)nn4)n3[B-]2(F)F)C=C1"
measurement_units = "nm"
experimental_result = 465

[[record]]
compound = "CC(=O)Nc1ccc(C2=C3C=CC(N4CCCC4)=[N+]3[B-](F)(F)n3c2ccc3-n2cc(CC(C)C)nn2)cc1"
measurement_units = "nm"
experimental_result = 461


====

# procedure_text: Absorbance and fluorescence emission spectra (SpectraMax M2)
# Type: physicochemical
# conditions: MK library, Table 5
recorded_endpoint: λmax Absorp. (nm)

[[record]]
compound = "CCCc1cn(-c2ccc3n2[B-](F)(F)[N+]2=C(NCc4ccccc4C)C=CC2=C3c2ccc(N)cc2)nn1"
measurement_units = "nm"
experimental_result = 473

[[record]]
compound = "Nc1ccc(C2=C3C=CC(N4CCc5ccccc5C4)=[N+]3[B-](F)(F)n3c2ccc3-n2cc(CCc3ccccc3)nn2)cc1"
measurement_units = "nm"
experimental_result = 480

[[record]]
compound = "COc1ccc(OC)c(CNC2=[N+]3C(=C(c4ccc(N)cc4)c4ccc(-n5cc(CN(C)Cc6ccccc6)nn5)n4[B-]3(F)F)C=C2)c1"
measurement_units = "nm"
experimental_result = 473

[[record]]
compound = "CCCCCC(O)c1cn(-c2ccc3n2[B-](F)(F)[N+]2=C(NCc4cc(OC)ccc4OC)C=CC2=C3c2ccc(N)cc2)nn1 (centres unmarked)"
measurement_units = "nm"
experimental_result = 473

[[record]]
compound = "CN(Cc1ccccc1)C1=[N+]2C(=C(c3ccc(N)cc3)c3ccc(-n4cc(C5CC5)nn4)n3[B-]2(F)F)C=C1"
measurement_units = "nm"
experimental_result = 476

[[record]]
compound = "CCCc1cn(-c2ccc3n2[B-](F)(F)[N+]2=C(N4CCCC4)C=CC2=C3c2ccc(N)cc2)nn1"
measurement_units = "nm"
experimental_result = 470

[[record]]
compound = "Cc1ccccc1CNC1=[N+]2C(=C(c3ccc(N)cc3)c3ccc(-n4cc(CN(C)Cc5ccccc5)nn4)n3[B-]2(F)F)C=C1"
measurement_units = "nm"
experimental_result = 474

[[record]]
compound = "CCCc1cn(-c2ccc3n2[B-](F)(F)[N+]2=C(N4CCc5ccccc5C4)C=CC2=C3c2ccc(N)cc2)nn1"
measurement_units = "nm"
experimental_result = 480

[[record]]
compound = "CN(Cc1ccccc1)Cc1cn(-c2ccc3n2[B-](F)(F)[N+]2=C(N4CCc5ccccc5C4)C=CC2=C3c2ccc(N)cc2)nn1"
measurement_units = "nm"
experimental_result = 478

[[record]]
compound = "CCCC(C)c1cn(-c2ccc3n2[B-](F)(F)[N+]2=C(N(C)Cc4ccccc4)C=CC2=C3c2ccc(N)cc2)nn1 (centres unmarked)"
measurement_units = "nm"
experimental_result = 476

[[record]]
compound = "CCCCCC(O)c1cn(-c2ccc3n2[B-](F)(F)[N+]2=C(N(C)Cc4ccccc4)C=CC2=C3c2ccc(N)cc2)nn1 (centres unmarked)"
measurement_units = "nm"
experimental_result = 476

[[record]]
compound = "CC(C)Cc1cn(-c2ccc3n2[B-](F)(F)[N+]2=C(N(C)Cc4ccccc4)C=CC2=C3c2ccc(N)cc2)nn1"
measurement_units = "nm"
experimental_result = 475

[[record]]
compound = "COc1ccc(OC)c(CNC2=[N+]3C(=C(c4ccc(N)cc4)c4ccc(-n5cc(CC6CCCCC6)nn5)n4[B-]3(F)F)C=C2)c1"
measurement_units = "nm"
experimental_result = 474

[[record]]
compound = "Nc1ccc(C2=C3C=CC(N4CCc5ccccc5C4)=[N+]3[B-](F)(F)n3c2ccc3-n2cc(CC3CCCCC3)nn2)cc1"
measurement_units = "nm"
experimental_result = 480

